Target: GST-CIB1 : F-scrambled peptide (Homo sapiens, UniProt Q99828)
Construct: made in house; host or cells: BL-21 plus RIL cells (E. coli)
Sequence (Q99828 1-191): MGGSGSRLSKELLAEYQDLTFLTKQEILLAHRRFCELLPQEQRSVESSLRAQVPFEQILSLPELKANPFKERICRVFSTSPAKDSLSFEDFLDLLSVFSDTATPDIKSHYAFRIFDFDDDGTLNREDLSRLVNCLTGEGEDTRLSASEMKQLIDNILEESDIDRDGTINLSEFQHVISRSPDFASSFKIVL
Assay: FP scrambled-peptide counter screen, 1536-well format
Format: binding
Conditions: Table S3, counterscreen; read-out: IC50 [μM] (counterscreen)
IC50 strictly under 40 µM means TRUE; at 40 µM or over means FALSE.

// query Is IC50 of "CN1CCc2ccc3c4c2[C@]1(C)Cc1cccc(c1-4)OCO3" strictly below 40 µM?
// result TRUE
